Target: T1, TCV P38 (capsid protein, VSR) wild type (Turnip crinkle virus (pTCV cDNA), UniProt P06663 1-351)
T1 sequence: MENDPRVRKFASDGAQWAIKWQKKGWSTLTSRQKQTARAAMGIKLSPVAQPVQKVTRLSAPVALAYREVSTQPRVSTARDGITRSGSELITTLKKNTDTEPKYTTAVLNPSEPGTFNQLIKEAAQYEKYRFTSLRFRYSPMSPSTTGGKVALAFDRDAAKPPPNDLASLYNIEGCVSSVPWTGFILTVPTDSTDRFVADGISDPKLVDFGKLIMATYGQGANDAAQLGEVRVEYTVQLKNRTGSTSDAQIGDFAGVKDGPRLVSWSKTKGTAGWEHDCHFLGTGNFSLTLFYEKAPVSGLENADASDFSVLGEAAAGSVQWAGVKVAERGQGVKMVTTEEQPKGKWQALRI
Experiment: competition
measurementKind: Ki (nM)

> print(dat)
                                     binder  number
1  AtmiR162 (dsRNA, 5'-phosphate) RNA 1: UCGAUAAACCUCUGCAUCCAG RNA 2: GGAGGCAGCGGUUCAUCGAUC    0.33
2  siR gf698_22 (dsRNA, 5'-phosphate) RNA 1: UAGUUCAUCCAUGCCAUGUGUA RNA 2: CACAUGGCAUGGAUGAACUAUA    0.35
3  dsRNA_33 (dsRNA, 5'-phosphate) RNA 1: CUAAGAUGCUCGCUGCCAAUGAACGACCCUCCCUAA RNA 2: UUAGGGAGGGUCGUUCAUUGGCAGCGAGCAUCU    0.06
4  siR gf698_24 (dsRNA, 5'-phosphate) RNA 1: UAGUUCAUCCAUGCCAUGUGUAAU RNA 2: UACACAUGGCAUGGAUGAACUAUA    0.33
5  AtmiR168 (dsRNA, 5'-phosphate) RNA 1: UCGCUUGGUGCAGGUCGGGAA RNA 2: CCCGCCUUGCAUCAACUGAAU     0.7
